List of MIC tested on Fusarium oxysporum f. sp. lycopersici.

// solved cases for MIC follow
compound: O=C1C2CC=CCC2C(=O)N1SC(Cl)(Cl)Cl (stereo not shown)
MIC: 1.56 to 4 µg/mL

compound: OB1OCc2cc(F)ccc21
MIC: 0.25 to 0.5 µg/mL

compound: Nc1ccc2c(c1)COB2O
MIC: > 32 µg/mL

compound: Cc1ccc2c(c1)COB2O
MIC: 1 µg/mL

compound: Cc1cc(C)nc(Nc2ccccc2)n1
MIC: 200 µg/mL

Query: MIC for "c1ccc2[nH]c(-c3cscn3)nc2c1" ?
Result: 200 to 400 µg/mL

Query: MIC for "OB1OCc2cc(Cl)ccc21" ?
Result: 0.25 µg/mL

---

List of MIC tested on Pythium aphanodermatum.

compound: OB1OCc2cc(F)ccc21
MIC: 2 to 4 µg/mL
--
compound: O=C1C2CC=CCC2C(=O)N1SC(Cl)(Cl)Cl (stereo not shown)
MIC: 28 µg/mL
--
compound: OB1OCc2cc(Cl)ccc21
MIC: 0.25 to 2 µg/mL
--
compound: Cc1cc(C)nc(Nc2ccccc2)n1
MIC: 100 to 200 µg/mL
--
compound: COC(=O)NC(=S)Nc1ccccc1NC(=S)NC(=O)OC [Thiophanate-Methyl, thiophanate-methyl]
MIC: 400 µg/mL
--
compound: CC1(C(=O)Nc2ccc(O)c(Cl)c2Cl)CCCCC1
MIC: 0.78 to 0.8 µg/mL

Query: # get_value(readout= MIC, system= Pythium aphanodermatum) for "c1ccc2[nH]c(-c3cscn3)nc2c1"
Result: 200 to 400 µg/mL

---

- Test system: Magnaporthe grisea
- assay_overview: microbe, parasite or virus in culture
- Assay type: cell-based
- experimental_context: Pyricularia oryzae, 72 h, read-out: Independent MIC
property: MIC (µg/mL)
Note: unit µg/mL is implicit; provide only the numeric part.

// solved cases for MIC follow
molecule: CCOP(=O)(Sc1ccccc1)Sc1ccccc1 [Edifenphos, edifenphos]
MIC / µg/mL: 6.25

molecule: CCCC1COC(Cn2cncn2)(c2ccc(Cl)cc2Cl)O1 (stereo not drawn) [Propiconazole, propiconazole]
MIC / µg/mL: 1.56

molecule: CCCCc1c(C)nc(NCC)nc1OS(=O)(=O)N(C)C [Bupirimate]
MIC / µg/mL: 50

molecule: CC1(C(=O)Nc2ccc(O)c(Cl)c2Cl)CCCCC1 [Fenhexamid, fenhexamid]
MIC / µg/mL: 3.12

molecule: CC(C)CC(C)c1sccc1NC(=O)c1cn(C)nc1C(F)(F)F (stereo not drawn) [Penthiopyrad, penthiopyrad]
MIC / µg/mL: 1.56

Query: MIC for CC(C)NC(=O)N1CC(=O)N(c2cc(Cl)cc(Cl)c2)C1=O [Iprodione, ipordione] ?
Result: 12.5

Query: MIC for C=CCOC1=NS(=O)(=O)c2ccccc21 [Probenazole, probenazole] ?
Result: 100

Query: MIC for CC(C)OP(=O)(OC(C)C)SCc1ccccc1 [Iprobenfos, iprobenfos] ?
Result: 25

---

- Tested on: Sclerotinia homoeocarpa
- assay_overview: Broth microdilution MIC of individual antifungals
- Assay type: cell-based
- experimental_context: Clarireedia homoeocarpa; Sclerotinia homoeocarpa; individual antifungal, 25% PDB, about 25° C., 72 hours; range over N independent triplicate studies; read-out: Independent MIC
As shown below, each of these molecules has a reported MIC value.

// solved cases for MIC follow
molecule: C=CC1(C)OC(=O)N(c2cc(Cl)cc(Cl)c2)C1=O (stereo not shown)
MIC: 4 to 5 µg/mL
--
molecule: CCCCc1c(C)nc(NCC)nc1OS(=O)(=O)N(C)C [Bupirimate]
MIC: 50 to 100 µg/mL
--
molecule: CC(C)(C)C(O)(CCc1ccc(Cl)cc1)Cn1cncn1 (stereo not shown)
MIC: 0.39 to 0.78 µg/mL

Lab note: next molecule to report on.
Query: MIC for CCCC1COC(Cn2cncn2)(c2ccc(Cl)cc2Cl)O1 (stereo not shown) ?
Result: 0.5 to 1 µg/mL
